# EXPERIMENTAL SYSTEM: hAHR (Homo sapiens, UniProt P35869)
# PROCEDURE DETAILS: hAHR nuclear translocation assay
# TEST CONTEXT: Jump-In T-REx HEK293 cells expressing AhR-EGFP; 45 min incubation; ratio of EGFP intensity in nuclear over cytosol; 20-point curve
MEASURED QUANTITY: pEC50
One number for each entry, as −log10 of the molar value.

Example results:
CC1CCc2c1c(O)c(C(=O)Nc1ncc(C(F)(F)F)cn1)c(=O)n2C (single isomer, unassigned) [Example 98]; 9.47
CC1CCc2c1c(O)c(C(=O)Nc1ncc(Cl)cn1)c(=O)n2C (single isomer, unassigned) [Example 94]; 9.27
CC1CCc2c1c(O)c(C(=O)Nc1ncccc1F)c(=O)n2C (stereo not drawn) [Example 29]; 8.65
CC1CCc2c1cc(C(=O)Nc1ccc(F)cn1)c(=O)n2C (stereo not drawn) [Example 2]; 8.01
Cn1c2c(cc(C(=O)Nc3ccccc3)c1=O)COC(C)(C)C2; 8.36

Report pEC50 for each item below.
1. Cn1c2c(c(O)c(C(=O)Nc3ccccn3)c1=O)CC(C)(C)C2
2. CC1Cc2c(O)c(C(=O)Nc3ccccn3)c(=O)n(C)c2C1 (single isomer, unassigned) [Example 87]

1: 8.03; 2: 7.56

Would you mind listing pEC50 for each of the following compounds?
1. Cn1c2c(cc(C(=O)Nc3ccccc3)c1=O)COCC2
2. CC1CCc2c1cc(C(=O)Nc1ccc(C(F)(F)F)cn1)c(=O)n2C (single isomer, unassigned) [Example 59]
3. CC1CCc2c1cc(C(=O)Nc1ccc(C(F)(F)F)cn1)c(=O)n2C (single isomer, unassigned) [Example 58]
4. CCC1CCc2c1cc(C(=O)Nc1ncc(F)cn1)c(=O)n2C (single isomer, unassigned) [Example 114]
5. C[C@@H]1CCc2c1cc(C(=O)Nc1ccsn1)c(=O)n2C

1. 7.59
2. 8.44
3. 8.44
4. 8.61
5. 8.88

Hi, could you look up pEC50 for each item in my list?
1. C[C@H]1CCc2c1cc(C(=O)Nc1ccccn1)c(=O)n2C
2. C[C@H]1CCc2c1cc(C(=O)Nc1ncco1)c(=O)n2C

8.39
7.75

Look at each compound and report its pEC50.
1. Cn1c2c(cc(C(=O)Nc3ncccn3)c1=O)C(C)(C)CC2
2. CC1CCc2c1cc(C(=O)Nc1nccc(C(F)(F)F)n1)c(=O)n2C (stereo not drawn)
3. CC(C)CCNC(=O)c1c(O)c2c(n(C)c1=O)CCCC2

1. 7.50
2. 8.08
3. 7.99

If you can, please state the reported pEC50 value of CC1CCc2c1cc(C(=O)Nc1nccs1)c(=O)n2C (single isomer, unassigned) [Example 62] .
8.74

====

# EXPERIMENTAL SYSTEM: hAHR (Homo sapiens, UniProt P35869)
# Sequence (P35869 11-848): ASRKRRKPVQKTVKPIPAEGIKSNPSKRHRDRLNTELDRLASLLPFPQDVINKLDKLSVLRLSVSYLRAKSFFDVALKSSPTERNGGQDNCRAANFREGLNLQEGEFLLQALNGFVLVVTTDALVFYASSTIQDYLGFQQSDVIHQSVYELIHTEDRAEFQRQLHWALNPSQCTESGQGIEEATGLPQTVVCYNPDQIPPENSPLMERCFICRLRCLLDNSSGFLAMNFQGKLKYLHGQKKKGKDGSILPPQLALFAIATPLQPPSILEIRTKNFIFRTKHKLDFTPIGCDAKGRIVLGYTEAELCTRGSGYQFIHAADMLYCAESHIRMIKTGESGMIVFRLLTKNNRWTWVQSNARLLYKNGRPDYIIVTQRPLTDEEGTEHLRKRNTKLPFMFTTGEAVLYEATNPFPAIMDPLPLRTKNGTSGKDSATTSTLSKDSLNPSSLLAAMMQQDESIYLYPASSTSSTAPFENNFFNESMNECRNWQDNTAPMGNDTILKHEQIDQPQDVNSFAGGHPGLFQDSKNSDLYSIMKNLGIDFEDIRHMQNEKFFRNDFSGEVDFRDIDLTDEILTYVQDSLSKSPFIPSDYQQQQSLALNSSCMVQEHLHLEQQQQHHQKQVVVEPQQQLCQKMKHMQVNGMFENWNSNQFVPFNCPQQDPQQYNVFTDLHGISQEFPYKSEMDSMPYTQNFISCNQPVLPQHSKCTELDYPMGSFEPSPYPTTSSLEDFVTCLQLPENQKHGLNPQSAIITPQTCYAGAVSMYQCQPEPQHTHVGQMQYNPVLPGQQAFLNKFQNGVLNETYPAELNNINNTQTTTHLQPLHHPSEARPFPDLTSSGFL
# PROCEDURE DETAILS: hAHR nuclear translocation assay
# TEST CONTEXT: Jump-In T-REx HEK293 cells expressing AhR-EGFP; 45 min incubation; ratio of EGFP intensity in nuclear over cytosol; 20-point curve
MEASURED QUANTITY: EC50 (nM)
One number for each entry, in nM.

Worked examples, 3 compounds total:
CC1CCc2c1c(O)c(C(=O)Nc1ccc(F)cn1)c(=O)n2C (centres unmarked) [Example 26]; 2.87
CC1CCc2c1cc(C(=O)Nc1ncccn1)c(=O)n2C (single isomer, unassigned) [Example 80]; 10.9
C[C@H]1CCc2c1cc(C(=O)Nc1ncc(F)cn1)c(=O)n2C; 4.67

Batch: EC50 for all items listed.
1. Cn1c2c(cc(C(=O)Nc3ccc(F)cn3)c1=O)CC(C)(C)C2
2. CC1CCc2c1c(O)c(C(=O)Nc1ccsn1)c(=O)n2C (single isomer, unassigned) [Example 39]
3. CC1CCc2c1c(O)c(C(=O)Nc1ccccn1)c(=O)n2C (single isomer, unassigned) [Example 89]
4. CC1CCc2c1c(O)c(C(=O)Nc1ncc(F)cn1)c(=O)n2C (single isomer, unassigned) [Example 95]
5. COc1cnc(NC(=O)c2c(O)c3c(n(C)c2=O)CCC3C)nc1 (single isomer, unassigned) [Example 102]

11.3
0.378
2.33
1.21
2.59

====

# EXPERIMENTAL SYSTEM: hAHR (Homo sapiens)
# PROCEDURE DETAILS: hAHR nuclear translocation assay
# TEST CONTEXT: Jump-In T-REx HEK293 cells expressing AhR-EGFP; 45 min incubation; ratio of EGFP intensity in nuclear over cytosol; 20-point curve
MEASURED QUANTITY: pEC50
One number for each entry, as −log10 of the molar value.

CC1CCc2c1cc(C(=O)Nc1ccc(F)cn1)c(=O)n2C (single isomer, unassigned) [Example 57]; 8.74

Give pEC50 for all compounds that follow.
1. CC1CCc2c1c(O)c(C(=O)Nc1ccc(C(F)(F)F)nc1)c(=O)n2C (stereo not shown)
2. CC1CCc2c1c(O)c(C(=O)Nc1cnsc1)c(=O)n2C (single isomer, unassigned) [Example 40]
3. Cn1c2c(c(O)c(C(=O)Nc3ccc(F)cn3)c1=O)C(C)(C)CC2

[8.43, 8.63, 8.62]

====

Field: pEC50. Provide a value for each of the compounds that follow.
# EXPERIMENTAL SYSTEM: UniProt:P35869
# PROCEDURE DETAILS: hAHR nuclear translocation assay
# TEST CONTEXT: Jump-In T-REx HEK293 cells expressing AhR-EGFP; 45 min incubation; ratio of EGFP intensity in nuclear over cytosol; 20-point curve
Give bare numbers, as −log10 of the molar value.

Consider the worked cases shown below.
C[C@H]1CCc2c1cc(C(=O)Nc1ccns1)c(=O)n2C [Example 17]; 8.87
CC1CCc2c1c(O)c(C(=O)Nc1ncc(Cl)cn1)c(=O)n2C (single isomer, unassigned) [Example 93]; 8.97

Now take the following compound into account.
For CC1CCc2c1c(O)c(C(=O)Nc1ccns1)c(=O)n2C (single isomer, unassigned) [Example 37] , what is its reported pEC50?
8.71

====

# EXPERIMENTAL SYSTEM: hAHR (Homo sapiens, UniProt P35869)
# PROCEDURE DETAILS: hAHR nuclear translocation assay
# TEST CONTEXT: Jump-In T-REx HEK293 cells expressing AhR-EGFP; 45 min incubation; ratio of EGFP intensity in nuclear over cytosol; 20-point curve
MEASURED QUANTITY: EC50

Completed entries (count: 3):
CC1CCc2c1c(O)c(C(=O)Nc1ncco1)c(=O)n2C (single isomer, unassigned) [Example 34]; 7.46 nM
CC1CCc2c1c(O)c(C(=O)Nc1ccns1)c(=O)n2C (single isomer, unassigned) [Example 36]; 2.78 nM
CC1Cc2c(O)c(C(=O)Nc3ccccn3)c(=O)n(C)c2C1 (single isomer, unassigned) [Example 88]; 0.897 nM

Please tell me: EC50 of CC1Cc2c(O)c(C(=O)Nc3ncccn3)c(=O)n(C)c2C1 (single isomer, unassigned) [Example 83] , system hAHR (Homo sapiens, UniProt P35869)?
233 nM
